# System: glycogen synthase
# method: Glycogen Synthase (GS) Assay
# Assay type: biochemical
# measurementConditions: compound concentration needed to stimulate 200% of the enzyme activity
Would you mind telling me the reported GS SC200 of each entry?
Number first, unit second.

Examples with their reported GS SC200 follow.
Field GS SC200 (glycogen synthase), entry COc1cc(F)c(F)cc1-c1ccc(OCc2cccc(N(CC(=O)O)C(C)=O)c2)cc1 : 0.33 µM

Field GS SC200 (glycogen synthase), entry O=C(Nc1cccc(COc2ccc(-c3ccc(F)cc3F)cc2)c1)[C@H]1CCC[C@H]1C(=O)O [Example 5] : 0.65 µM

Field GS SC200 (glycogen synthase), entry COc1cc(F)c(F)cc1-c1ccc(OCc2cccc(NS(C)(=O)=O)c2)cc1 : 1.1 µM

Field GS SC200 (glycogen synthase), entry CS(=O)(=O)Nc1cccc(COc2ccc(-c3cc(F)c(F)cc3F)cc2)c1 : 2.41 µM

Field GS SC200 (glycogen synthase), entry O=S(=O)(Nc1cccc(COc2ccc(-c3cc(F)c(F)cc3F)cc2)c1)C(F)(F)F : 0.95 µM

# batch size: 2; output GS SC200 per entry
1. O=C(O)[C@H]1CCC[C@H]1C(=O)Nc1cccc(COc2ccc(-c3ccc(F)cc3F)cc2)c1 (stereo in doubt)
2. COc1cc(F)c(F)cc1-c1ccc(OCc2cccc(N3CCC[C@H]3C(=O)O)c2)cc1

Response:
["0.77 µM", "0.7 µM"]

# batch size: 2; output GS SC200 per entry
1. O=C(Nc1cccc(COc2ccc(-c3ccc(F)cc3F)cc2)c1)C1CCC[C@H]1C(=O)O (stereo in doubt)
2. O=C(O)C1CCC[C@@H]1C(=O)Nc1cccc(COc2ccc(-c3ccc(F)cc3F)cc2)c1 (stereo in doubt)

Response:
1.3 µM
2.09 µM

# batch size: 4; output GS SC200 per entry
1. COc1cc(F)c(F)cc1-c1ccc(OCc2cccc(N3CCC[C@H]3CC(=O)O)c2)cc1
2. COc1cc(F)c(F)cc1-c1ccc(OCc2cccc(NS(=O)(=O)C(F)(F)F)c2)cc1
3. O=C(O)CCC(=O)Nc1cccc(COc2ccc(-c3ccc(F)cc3F)cc2)c1
4. O=C(Nc1cccc(COc2ccc(-c3ccc(F)cc3F)cc2)c1)[C@H]1CCC[C@H]1C(=O)O (racemic) [Example 2]

Response:
["2.43 µM", "0.18 µM", "2.69 µM", "3.24 µM"]

###

# Test system: glycogen synthase
# method: Glycogen Synthase (GS) Assay
# Type: biochemical
# measurementConditions: compound concentration needed to give 50% maximum activation
So basically, if EC50 comes in under 6 µM it's satisfied, and if it's 6 µM or more it's not satisfied.

Would you please look over these solved cases?
Query: Does COc1cc(F)c(F)cc1-c1ccc(OCc2cccc(NS(=O)(=O)C(F)(F)F)c2)cc1 [Example 13] have EC50 strictly under 6 µM?
Response: satisfied

Query: Does O=C(Nc1cccc(COc2ccc(-c3ccc(F)cc3F)cc2)c1)C1CCC[C@H]1C(=O)O (stereo in doubt) [Example 3] have EC50 strictly under 6 µM?
Response: satisfied

Query: Does COc1cc(F)c(F)cc1-c1ccc(OCc2cccc(NS(C)(=O)=O)c2)cc1 [Example 11] have EC50 strictly under 6 µM?
Response: satisfied

More entries:
Query: Does CS(=O)(=O)Nc1cccc(COc2ccc(-c3cc(F)c(F)cc3F)cc2)c1 [Example 10] have EC50 strictly under 6 µM?
Response: satisfied

Query: Does O=C(O)CCC(=O)Nc1cccc(COc2ccc(-c3ccc(F)cc3F)cc2)c1 [Example 1] have EC50 strictly under 6 µM?
Response: not satisfied

Query: Does COc1cc(F)c(F)cc1-c1ccc(OCc2cccc(N3CCC[C@H]3C(=O)O)c2)cc1 [Example 7] have EC50 strictly under 6 µM?
Response: satisfied

Query: Does O=S(=O)(Nc1cccc(COc2ccc(-c3cc(F)c(F)cc3F)cc2)c1)C(F)(F)F [Example 12] have EC50 strictly under 6 µM?
Response: satisfied

Query: Does O=C(O)[C@H]1CCC[C@H]1C(=O)Nc1cccc(COc2ccc(-c3ccc(F)cc3F)cc2)c1 (stereo in doubt) [Example 6] have EC50 strictly under 6 µM?
Response: satisfied

Query: Does COc1cc(F)c(F)cc1-c1ccc(OCc2cccc(N(CC(=O)O)C(C)=O)c2)cc1 [Example 9] have EC50 strictly under 6 µM?
Response: satisfied

Query: Does COc1cc(F)c(F)cc1-c1ccc(OCc2cccc(N3CCC[C@H]3CC(=O)O)c2)cc1 [Example 8] have EC50 strictly under 6 µM?
Response: not satisfied

Query: Does O=C(Nc1cccc(COc2ccc(-c3ccc(F)cc3F)cc2)c1)[C@H]1CCC[C@H]1C(=O)O [Example 5] have EC50 strictly under 6 µM?
Response: satisfied
